Assayed System: T1, AMHRII receptor expressed on cells (cov434-AMHRII, Asc 1, META 2815) (human, UniProt Q16671 18-573)
T1 sequence (looked up): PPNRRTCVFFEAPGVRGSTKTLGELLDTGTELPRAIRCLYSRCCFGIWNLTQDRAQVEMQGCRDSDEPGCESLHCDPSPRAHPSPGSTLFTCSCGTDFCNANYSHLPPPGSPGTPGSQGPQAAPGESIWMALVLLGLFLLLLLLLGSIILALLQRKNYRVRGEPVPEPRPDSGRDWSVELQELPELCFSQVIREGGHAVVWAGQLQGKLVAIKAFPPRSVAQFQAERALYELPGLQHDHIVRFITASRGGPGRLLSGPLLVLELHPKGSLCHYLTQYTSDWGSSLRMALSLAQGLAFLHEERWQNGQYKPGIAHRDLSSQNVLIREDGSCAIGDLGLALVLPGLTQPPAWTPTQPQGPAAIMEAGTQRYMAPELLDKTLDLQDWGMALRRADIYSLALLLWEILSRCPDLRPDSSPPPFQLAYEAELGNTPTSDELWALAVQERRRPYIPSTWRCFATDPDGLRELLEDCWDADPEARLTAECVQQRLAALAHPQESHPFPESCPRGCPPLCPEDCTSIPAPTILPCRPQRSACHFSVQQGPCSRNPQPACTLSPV
Assay Method Text: cell-based or functional assay
Measured Endpoint: % of lysis of ASC1 cells (ADCC with NK cells, LDH release) at 0.005 ng/ml antibody (%)
Give just the numeric value; % need not be written.

Consider the reported % of lysis of ASC1 cells (ADCC with NK cells, LDH release) at 0.005 ng/ml antibody for these binders:
Binder | Readout Number
unmutated humanized 12G4 monoclonal antibody (antibody, human IgG1, kappa, V domains shown, Variable regions without leader joined to the constant regions; also called huLFB112; 632 07 107 Anti AMHRII hum 1st) VH: QVQLVQSGAEVKKPGASVKVSCKASGYTFTSYHIHWVRQAPGQRLEWMGWIYPGDDSTKYSQKFQGRVTITRDTSASTAYMELSSLRSEDTAVYYCTRGDRFAYWGQGTLVTVSS VL: DIQMTQSPSTLSASVGDRVTITCRASSSVRYIAWYQQKPGKAPKLLIYSTSSLESGVPSRFSGSGSGTEFTLTISSLQPDDFATYYCLQWSSYPWTFGGGTKVEIKR | 18
mutated humanized 12G4 antibody 3C-23K produced in YB2/0 (antibody, human IgG1, kappa, V domains shown, Chains without leader; also called 3C_23K YB2/0; 3C-23K-YB2/0) VH: QVRLVQSGAEVKKPGASVKVSCKASGYTFTSYHIHWVRQAPGQRLEWMGWIYPGDDSTKYSQKFQGRVTITRDTSASTAYMELSSLRSEDTAVYYCTRGDRFAYWGQGTLVTVSS VL: DIQMTQSPSTLSASVGDRVTITCRASSSVRYIAWYQQKPGKAPKLLTYPTSSLKSGVPSRFSGSGSGTEFTLTISSLQPDDFATYYCLQWSSYPWTFGGGTKVEIKR | 8
mutated humanized 12G4 antibody 6B-78 produced in YB2/0 (antibody, human IgG1, kappa, V domains shown, Chains without leader; Mutation VL-E184K; also called 6B_78 YB2/0; R901 6B78) VH: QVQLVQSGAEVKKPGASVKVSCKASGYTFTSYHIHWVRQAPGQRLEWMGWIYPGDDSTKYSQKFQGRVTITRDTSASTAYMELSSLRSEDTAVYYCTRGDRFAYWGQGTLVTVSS VL: DIQMTQSPSTLSASVGDRVTITCRASSSVRYIAWYQQKPGKAPKLLIYSTSSLKSGVPSRFSGSGSGTEFTLTISSLQPDDFATYYCLQWSSYPWTFGGGTKVEIKR | 14

Lab note: next binder to report on.
Using the record for mutated humanized 12G4 antibody 3C-23 produced in YB2/0 (antibody, human IgG1, kappa, V domains shown, Chains without leader; Mutations VH-Q3R, VL-I177T/S179P; also called 3C_23 YB2/0; R901 3C23) VH: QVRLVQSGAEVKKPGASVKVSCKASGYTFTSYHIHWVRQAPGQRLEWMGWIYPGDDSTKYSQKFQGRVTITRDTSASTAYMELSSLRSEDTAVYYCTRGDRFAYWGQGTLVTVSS VL: DIQMTQSPSTLSASVGDRVTITCRASSSVRYIAWYQQKPGKAPKLLTYPTSSLESGVPSRFSGSGSGTEFTLTISSLQPDDFATYYCLQWSSYPWTFGGGTKVEIKR , report its % of lysis of ASC1 cells (ADCC with NK cells, LDH release) at 0.005 ng/ml antibody.
8
